Field: Population Hoechst High Intensity Objects (%). Provide a value for each of the compounds that follow.
System: HEK-293T
ASSAY_COMMENT: Multiplex assay against HEK293T
Assay type: toxicity, cell-based
REPORTED_CONDITIONS: human, 12 h, 1 µM, compound concentration 1 uM, replicate 1
Answer with a number only, understood to be in %.

Reported Population Hoechst High Intensity Objects (%) ( `N#Cc1cnc(Nc2cc(NC[C@H]3CNCCO3)c(C(F)(F)F)cn2)cn1` ) = 13

Reported Population Hoechst High Intensity Objects (%) ( `COc1cc2c(NC3CCN(C(C)C)CC3)nc(N3CCC(F)(F)CC3)nc2cc1OCCCN1CCCC1` ) = 19

Reported Population Hoechst High Intensity Objects (%) ( `CC(C)(C)c1cnc(CSc2cnc(NC(=O)C3CCNCC3)s2)o1` ) = 19

Reported Population Hoechst High Intensity Objects (%) ( `COc1ccc(NS(=O)(=O)c2sc3ccc(Cl)cc3c2C)cc1N1CCNCC1.Cl` ) = 35

Reported Population Hoechst High Intensity Objects (%) ( `Cl.Cl.NC1(c2ccc(-c3nc4ccn5c(=O)[nH]nc5c4cc3-c3ccccc3)cc2)CCC1` ) = 20

Reported Population Hoechst High Intensity Objects (%) ( `Cc1cn(-c2cc(NC(=O)c3ccc4c(c3)CN(c3cncnc3)C[C@@H]4C)cc(C(F)(F)F)c2)cn1` ) = 20

Reported Population Hoechst High Intensity Objects (%) ( `Nc1ccc(C(=O)Nc2cccc(-c3nc(N4CCOCC4)c4oc5ncccc5c4n3)c2)cn1` ) = 19

Reported Population Hoechst High Intensity Objects (%) ( `Nc1nc2c(c(N3CCNCC3)n1)CCC1=C2[C@@H]2CCCC[C@@H]2O1` ) = 10

Reported Population Hoechst High Intensity Objects (%) ( CN(C)C/C=C/C(=O)Nc1cc2c(Nc3ccc(F)c(Cl)c3)ncnc2cc1O[C@H]1CCOC1.O=C(O)/C=C\C(=O)O.O=C(O)/C=C\C(=O)O [AFATINIB DIMALEATE] ) = 15

Reported Population Hoechst High Intensity Objects (%) ( Cc1nc(Cc2cccc(C(F)(F)F)c2)sc1-c1ccc(C(N)=O)nc1 [TP-024n] ) = 14

Reported Population Hoechst High Intensity Objects (%) ( CC(C)Oc1ccc(C(=O)N[C@H](CNC(=O)CN(C)C)Cc2ccc(-c3cn4cccc([C@H](C)O)c4n3)cc2)cc1Cl [GSK-923295A] ) = 8

Reported Population Hoechst High Intensity Objects (%) ( `CCOc1cc2ncc(C#N)c(Nc3ccc(OCc4cccc(F)c4)c(Cl)c3)c2cc1NC(=O)/C=C/CN(C)C` ) = 13

Reported Population Hoechst High Intensity Objects (%) ( `COc1cc2c(Nc3ccc(NC(=O)c4ccccc4)cc3)ncnc2cc1OCCCN1CCOCC1` ) = 18

Reported Population Hoechst High Intensity Objects (%) ( `COc1cc(N2CCC(N(C)C)CC2)ccc1Nc1ncc(Cl)c(Nc2ccccc2P(C)(C)=O)n1` ) = 14

Reported Population Hoechst High Intensity Objects (%) ( `c1ccc2oc(-c3csc(C4CCN(Cc5nc6ncccc6[nH]5)CC4)n3)cc2c1` ) = 19

Reported Population Hoechst High Intensity Objects (%) ( `CNc1oc(-c2cccc3ccccc23)nc1C#N` ) = 30

Reported Population Hoechst High Intensity Objects (%) ( CCn1c(-c2nonc2N)nc2cnc(Oc3cccc(NC(=O)c4ccc(OCCN5CCOCC5)cc4)c3)cc21 [GSK-269962A] ) = 17

Reported Population Hoechst High Intensity Objects (%) ( `CNC(=O)c1cc(Oc2ccc(NC(=O)Nc3cc(C(C)(C)C)nn3-c3ccc4ncccc4c3)c(F)c2)ccn1` ) = 15

Reported Population Hoechst High Intensity Objects (%) ( `CCCn1c(=O)c2[nH]c(C34CC5CC(CC3C5)C4)nc2n(CCC)c1=O` ) = 15

Reported Population Hoechst High Intensity Objects (%) ( `CNC(=O)c1nn(C)c2c1C(C)(C)Cc1cnc(Nc3ccc(N4CCN(C)CC4)cc3)nc1-2` ) = 21

Reported Population Hoechst High Intensity Objects (%) ( CCC(=O)O[C@]1(C(=O)SCF)[C@H](C)C[C@H]2[C@@H]3C[C@H](F)C4=CC(=O)C=C[C@]4(C)[C@@]3(F)[C@@H](O)C[C@@]21C [FLUTICASONE PROPIONATE] ) = 11

Reported Population Hoechst High Intensity Objects (%) ( `CCOc1cc(N2CCC(O)CC2)ccc1Nc1ncc2c(n1)N(C1CCCC1)CCC(=O)N2C` ) = 13

Reported Population Hoechst High Intensity Objects (%) ( `CC(=O)c1cc(-c2cc(C(=O)NC3CC3)ccc2C)c2ncccn12` ) = 12

Reported Population Hoechst High Intensity Objects (%) ( `O=C(O)c1ccc2cc(-c3ccc(O)c(C45CC6CC(CC(C6)C4)C5)c3)ccc2c1` ) = 5

Reported Population Hoechst High Intensity Objects (%) ( `Cc1cc2c(cc1N1C(=O)c3cccc4c(CCCO)ccc(c34)C1=O)n(C)c(=O)n2C` ) = 16

Reported Population Hoechst High Intensity Objects (%) ( `CC(C)N1CCC(C)(C)c2cc(C#Cc3ccc(C(=O)O)cc3)ccc21` ) = 17

Reported Population Hoechst High Intensity Objects (%) ( `Cl.Cl.Nc1ncnc2c1c(-c1cccc(OCc3ccccc3)c1)cn2[C@H]1C[C@@H](CN2CCC2)C1` ) = 24

Reported Population Hoechst High Intensity Objects (%) ( `CN(C)CCOc1ccc(-c2nc(-c3ccncc3)c(-c3ccc4c(c3)CC/C4=N\O)[nH]2)cc1` ) = 22

Reported Population Hoechst High Intensity Objects (%) ( `CCc1cc2c(cc1CC)CC(NC[C@H](O)c1ccc(O)c3[nH]c(=O)ccc13)C2` ) = 16
